# maps each entry to its IC50
Target: Endothelial lipase (EL) (Homo sapiens)
Construct: HT-1080 cells that were transformed using RAGE technology (Athersys) to overexpress endogenous EL; endogenous in cells; conditioned medium used
Sequence (Q9Y5X9 21-500): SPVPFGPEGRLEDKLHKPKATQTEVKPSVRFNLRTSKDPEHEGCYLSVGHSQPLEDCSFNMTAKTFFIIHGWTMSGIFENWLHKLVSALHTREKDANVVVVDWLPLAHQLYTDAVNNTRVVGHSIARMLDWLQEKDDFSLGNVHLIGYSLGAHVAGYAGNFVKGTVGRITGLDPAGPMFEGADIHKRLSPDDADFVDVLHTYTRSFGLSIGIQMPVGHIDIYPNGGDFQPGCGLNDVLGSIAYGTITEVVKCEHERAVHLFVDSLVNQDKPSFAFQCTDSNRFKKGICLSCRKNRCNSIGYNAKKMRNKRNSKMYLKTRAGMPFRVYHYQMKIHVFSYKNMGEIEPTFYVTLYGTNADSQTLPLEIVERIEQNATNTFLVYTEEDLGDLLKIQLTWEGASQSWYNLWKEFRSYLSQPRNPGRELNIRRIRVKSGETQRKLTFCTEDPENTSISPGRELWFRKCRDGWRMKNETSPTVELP
Assay: Endothelial lipase (EL) enzymatic assay, fluorescent substrate A10070 in DMPG vesicles
Type: biochemical
Settings: EL from conditioned media of HT-1080 cells; compound preincubated 30 min at 37° C; read-out: EL IC50

-- ask Need IC50 of CS(=O)(=O)C(c1nnc(CNS(N)(=O)=O)o1)c1nc2ccc(-c3cccc(C(=O)Nc4nncs4)c3)cc2s1 (stereo not drawn) , thanks.
-- reply 2 nM

-- ask Need IC50 of NS(=O)(=O)NCc1nnc(C(c2nc3ccc(-c4ccccc4)cc3s2)S(=O)(=O)Cc2ccccc2F)o1 (stereo not drawn) , thanks.
-- reply < 10 nM
